ASSAY_METHOD_TEXT: STAT1 signaling activators, primary screen, cell-based, HTS, luciferase reporter (AID 932)
PARTICULARS: NIH 3T3 STAT1-luciferase reporter, IFN-gamma, luminescence; at 5.5 µM; 100% = IFN-gamma alone, no compound
Out of some 200,000 compounds screened, about 5,100 (2.5%) were called active.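 Rule for the calls: active = activation above the screen-wide mean activation plus 3 SD (cut at about 130% in these data); inactive = the rest.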 Shown is part of a subset that was picked to be rich in actives.
Field 'call' accepts True (active), False (inactive)

Past entries and their recorded results:
INSERT INTO assay_data (compound, discrete_label) VALUES
  ('Cc1ccc(S(=O)(=O)NCCN2CCOCC2)cc1C', 'False'),
  ('COc1ccc(CCNC(=O)C(=O)NCc2ccccc2C)cc1OC', 'False'),
  ('C=CCN(c1ccc(Cl)cc1)S(=O)(=O)c1cccc(C(=O)OCC(=O)N(C)C)c1', 'False'),
  ('Nc1nnnn1CC(=O)N/N=C/c1ccc(-c2cccc(Cl)c2)o1', 'False'),
  ('Cc1ccc(S(=O)(=O)N2CCOCC2)cc1C(=O)OC1CCCCC1=O (stereo unspecified)', 'False'),
  ('O=C1NC(c2cccc(Cl)c2)Nc2ccccc21 (stereo unspecified)', 'False'),
  ('Cc1cc2nc(SCCN3CCOCC3)[nH]c2cc1C', 'True'),
  ('CCN(CC)N=Nc1cccc(NC(C)=O)c1', 'False'),
  ('CCOC(=O)C1CCN(c2ccc(C(=O)O)cc2[N+](=O)[O-])CC1', 'False'),
  ('O=C1c2ccccc2NC(c2ccc(-c3cccc(Cl)c3)o2)N1O (stereo unspecified)', 'True');

In the following, a different compound is considered.
Task item: Just curious, what result did CCOc1ccc(NC(=O)CN(C)CC(=O)NC(C)c2ccccc2)cc1OCC (stereo unspecified) get here?
Reply: False

These entries and their values trace back to PubChem BioAssay AID932.
